Known composite z-score of a selection of compounds
molecular target: Alpha-bungarotoxin (Bungarus multicinctus); assay: alpha-bungarotoxin binders on microarray, profiling panel, artefact control for SMM control protein annotation, biochemical, small-molecule microarray, Alexa647 label, 635/667 nm fluorescence (AID 1117); conditions: alpha-BTX-A647 binding fluorescence, higher = more signal

| COMPOUND | ASSAYED TARGET | composite z-score |
| --- | --- | --- |
| O=C1[C@]2(CO)C=C(Br)[C@@H](C[C@@H]2c2ccccc2)[C@@]12CO2 | Alpha-bungarotoxin (Bungarus multicinctus) | -0.0487 |
| O=c1cccc(C=Cc2ccccc2)o1 | Alpha-bungarotoxin (Bungarus multicinctus) | -0.374 |
| CC(C)Cc1ccc(CN2CC[C@@H](NS(=O)(=O)c3ccccc3)C2)cc1 | Alpha-bungarotoxin (Bungarus multicinctus) | -0.577 |
| C#CCN(C(/C=C/c1ccccc1)CO)C(C(=O)O)c1ccccc1 (stereo not given) | Alpha-bungarotoxin (Bungarus multicinctus) | 0.127 |
| COCCOC(=O)N1C(=O)[C@@]2(c3ccccc31)[C@H](C(=O)Nc1nc3ccccc3s1)[C@H]1C(=O)O[C@H](c3ccccc3)[C@H](c3ccccc3)N1[C@@H]2c1ccc(OCCO)cc1 | Alpha-bungarotoxin (Bungarus multicinctus) | 1.6 |
| COCCOC(=O)N1C(=O)[C@@]2(c3cc(C#CCC(C(=O)OC)C(=O)OC)ccc31)[C@H](c1ccccc1OCCO)N1[C@H](c3ccccc3)[C@H](c3ccccc3)OC(=O)[C@H]1[C@@H]2C(N)=O | Alpha-bungarotoxin (Bungarus multicinctus) | 2.37 |
| CC(C)c1ccc(NN2C(C(O)c3ccc(N(C)C)cc3)C=CC3C(=O)N(c4ccccc4)C(=O)C32)cc1 (stereo not given) | Alpha-bungarotoxin (Bungarus multicinctus) | 1.73 |
| CS(=O)(=O)CCOC(=O)C1=CC(CCCO)=CC(c2cccs2)N(Cc2cc3c(cc2Br)OCO3)C=C1C(=O)OCCS(C)(=O)=O (stereo not given) | Alpha-bungarotoxin (Bungarus multicinctus) | 1.8 |
| C=CC[C@@]1(C(=O)N2CCOCC2)N=C(c2ccc(OCCCO)cc2)O[C@@H]1c1ccccc1N=[N+]=[N-] | Alpha-bungarotoxin (Bungarus multicinctus) | 1.8 |
| O=C1O[C@H](c2ccccc2)[C@H](c2ccccc2)N2[C@H]1[C@@H](C(=O)NC[C@H](O)c1ccccc1)[C@]1(C(=O)Nc3ccc(C#CCCO)cc31)[C@H]2c1ccc(O)cc1 | Alpha-bungarotoxin (Bungarus multicinctus) | -1.61 |
| CCOC(=O)C[C@H]1[C@H](OC(=O)c2ccccc2-c2ccccc2)[C@@H](NC(=O)Cc2ccc(OC)cc2)c2cc(OCCCO)ccc2N1C(=O)c1ccccc1 | Alpha-bungarotoxin (Bungarus multicinctus) | -0.0826 |
| C=C[C@@H](COC(C)=O)N(Cc1ccc([N+](=O)[O-])cc1)S(=O)(=O)c1ccc(Br)cc1 | Alpha-bungarotoxin (Bungarus multicinctus) | 1.78 |
| COCCOC(=O)N1C(=O)[C@@]2(c3cc(C#CCC(C(=O)OC)C(=O)OC)ccc31)[C@H](c1ccc(O)cc1)N1[C@H](c3ccccc3)[C@H](c3ccccc3)OC(=O)[C@H]1[C@@H]2C(N)=O | Alpha-bungarotoxin (Bungarus multicinctus) | 0.944 |
| Cc1cc(C)cc(N2C(=O)CS(=O)(=O)C2c2cccc([N+](=O)[O-])c2)c1 (stereo not given) | Alpha-bungarotoxin (Bungarus multicinctus) | 1.25 |
| O=C1O[C@@H](c2ccccc2)[C@@H](c2ccccc2)N2[C@@H](c3ccc(O)cc3)[C@]3(C(=O)Nc4ccc(C#CC5=CCCCC5)cc43)[C@@H](C(=O)O)[C@H]12 | Alpha-bungarotoxin (Bungarus multicinctus) | 1.17 |
